Target: ENPP1 (Homo sapiens, UniProt P22413)
Sequence (P22413 1-925): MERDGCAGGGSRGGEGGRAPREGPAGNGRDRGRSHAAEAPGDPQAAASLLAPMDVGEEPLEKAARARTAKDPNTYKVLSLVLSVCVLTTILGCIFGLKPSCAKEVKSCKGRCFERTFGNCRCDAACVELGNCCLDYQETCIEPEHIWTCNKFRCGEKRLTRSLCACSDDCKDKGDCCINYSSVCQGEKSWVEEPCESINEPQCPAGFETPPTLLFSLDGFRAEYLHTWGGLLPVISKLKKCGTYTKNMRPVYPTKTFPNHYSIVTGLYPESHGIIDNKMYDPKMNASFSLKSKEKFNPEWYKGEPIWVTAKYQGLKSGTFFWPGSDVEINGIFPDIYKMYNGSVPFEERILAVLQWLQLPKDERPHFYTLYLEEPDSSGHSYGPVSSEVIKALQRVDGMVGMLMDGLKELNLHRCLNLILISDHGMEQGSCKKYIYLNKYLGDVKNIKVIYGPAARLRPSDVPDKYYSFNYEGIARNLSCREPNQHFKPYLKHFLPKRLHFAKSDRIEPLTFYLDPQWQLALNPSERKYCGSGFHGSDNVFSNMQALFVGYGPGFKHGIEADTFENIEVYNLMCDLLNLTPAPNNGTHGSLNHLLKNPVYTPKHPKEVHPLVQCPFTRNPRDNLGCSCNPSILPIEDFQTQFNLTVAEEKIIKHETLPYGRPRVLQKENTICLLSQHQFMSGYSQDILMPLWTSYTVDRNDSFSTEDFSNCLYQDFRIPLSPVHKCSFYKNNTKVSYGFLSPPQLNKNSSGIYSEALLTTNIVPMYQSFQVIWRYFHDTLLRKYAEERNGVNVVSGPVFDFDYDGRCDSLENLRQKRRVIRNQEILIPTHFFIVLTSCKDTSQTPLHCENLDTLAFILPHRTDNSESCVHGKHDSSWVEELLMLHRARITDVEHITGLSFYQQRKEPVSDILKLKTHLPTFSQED
Assay: Substrate selectivity ratio, inhibition of cGAMP hydrolysis versus ATP hydrolysis
Format: biochemical
Conditions: ratio Ki AMP-pNP / Ki cGAMP
# Substrate Selectivity: Ki_AMP-pNP/Ki_cGAMP per entry
REPORTED_PROPERTY: Substrate Selectivity: Ki_AMP-pNP/Ki_cGAMP

STRUCTURE_STRING | LIMIT_OPERATOR | RECORDED_NUMBER
COc1cc2nccc(OCc3ccc(NS(N)(=O)=O)cc3)c2cc1OC | > | 25.0
COc1ccc2c(N3CCc4cc(NS(N)(=O)=O)ccc43)ccnc2c1 | = | 29.6
COc1cc2nccc(N3CCc4cc(NS(N)(=O)=O)ccc43)c2cc1OC | = | 30.7
COc1cc2c(N3CCC(CCNS(N)(=O)=O)CC3)ncnc2cn1 | > | 27.0
